Target: mouse melanocortin-4 receptor (mouse, UniProt P56450 1-332)
Sequence (P56450 whole entry): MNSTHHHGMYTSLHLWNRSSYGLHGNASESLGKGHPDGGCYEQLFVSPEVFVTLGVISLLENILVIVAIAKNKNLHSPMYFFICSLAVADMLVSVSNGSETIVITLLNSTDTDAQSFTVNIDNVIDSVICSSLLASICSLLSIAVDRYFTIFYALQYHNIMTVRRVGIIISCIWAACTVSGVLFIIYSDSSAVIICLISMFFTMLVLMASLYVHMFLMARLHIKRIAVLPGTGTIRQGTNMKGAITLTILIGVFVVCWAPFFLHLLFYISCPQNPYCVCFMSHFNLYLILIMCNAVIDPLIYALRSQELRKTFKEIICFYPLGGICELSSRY
Test: cell-based or functional assay
Bridges are numbered along the chain shown (N, C = ends). Where no end group is shown, it is not given here. [ ]: non-standard residue; d: D form. Dap = NC[C@H](N)C(=O)O
READOUT LABEL: EC50 (agonist) (µM)
Entry rule: numbers only, all in µM.

What does the data say about its EC50 (agonist)? Entry: YDHPRWNAF[Dap]Y-NH2 (lactam 2-10; N-terminus assumed; SMILES C[C@@H]1NC(=O)[C@H](CC(N)=O)NC(=O)[C@H](Cc2c[nH]c3ccccc23)NC(=O)[C@H](CCCNC(=N)N)NC(=O)[C@@H]2CCCN2C(=O)[C@H](Cc2c[nH]cn2)NC(=O)[C@@H](NC(=O)[C@@H](N)Cc2ccc(O)cc2)CC(=O)NC[C@@H](C(=O)N[C@@H](Cc2ccc(O)cc2)C(N)=O)NC(=O)[C@H](Cc2ccccc2)NC1=O) [SEQ ID NO:31 (Tyr-c[Asp-His-Pro-Arg-Trp-Asn-Ala-Phe-Dpr]-Tyr)]
16.7
